Test system: OVCAR-5
Experiment: NCI tumour cell line growth inhibition, 48 h
Activity calls are given as the source filed them. No stated cut-off is given here; in the data, active = GI50 up to about 1.1 µM and inactive = higher.
MEASURED ATTRIBUTE: GI50

Use the examples below as a reference point.
COMPOUND	GI50
O=[N+]([O-])c1ccc(/C=C/c2csnn2)cc1	> 100 µM (inactive)
C=CC(C)CCC(C/C=C(\C)CCC=C(C)C)C(=C)CCCC(C)C (stereo unspecified)	> 100 µM (inactive)
O=C1CC(c2ccccc2)=Nc2ccccc2N1	> 100 µM (inactive)
COc1cc2c(cc1OC)CN1CCc3ccccc3CC1C2 (stereo unspecified)	> 100 µM (inactive)
N#Cc1nc(-c2ccccn2)c(-c2ccccn2)nc1C#N	3.32 µM (inactive)

Shift focus to the following entry.
// recorded GI50 for O=C(Nc1cccc(Cc2cccc(NC(=O)c3ccccc3)c2)c1)c1ccccc1 : > 100 µM (inactive)
